Measured values drawn from PubChem BioAssay AID1963986 for this set.

System: 171881-019-R-J1-PDC tumor spheroid viability;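 further: spheroids exposed to compound for 7 days before viability read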
Assay: Anticancer human tumor 171881-019-R-J1-PDC patient-derived invasive breast carcinoma cell line growth inhibition [PI3K]
Conditions: second compound 1 µM; first compound 3.16 µM; hits give low values; spheroids with HUVEC and MSC
Class membership depends on viability, T/C alone; the intervals are bottom = under 9%, middle = from 9% up to 20%, top = 20% and over

Below, 5 compounds whose answers are already recorded.
[[record]]
compound = "C[C@@H](NC(=O)c1ncnc(N)c1Cl)c1ncc(C(=O)Nc2cc(C(F)(F)F)c(Cl)cn2)s1 + CC(Nc1ncnc2nc[nH]c12)c1cc2cccc(Cl)c2c(=O)n1-c1ccccc1"
target_entity = "171881-019-R-J1-PDC tumor spheroid viability"
class_assignment = "top"

[[record]]
compound = "CC1(C)CCC(Nc2ncc(C(F)(F)F)c(-c3c[nH]c4c(P(C)(C)=O)c(C#N)ccc34)n2)CN1 (stereo unspecified) + COc1c(OCCCN2CCOCC2)ccc2c3n(c(=NC(=O)c4cnc(N)nc4)nc12)CCN3"
target_entity = "171881-019-R-J1-PDC tumor spheroid viability"
class_assignment = "bottom"

[[record]]
compound = "C=CC(=O)N1CCN(c2nc(=O)n(-c3c(C)ccnc3C(C)C)c3nc(-c4c(O)cccc4F)c(F)cc23)C(C)C1 (stereo unspecified) + COc1c(OCCCN2CCOCC2)ccc2c3n(c(=NC(=O)c4cnc(N)nc4)nc12)CCN3"
target_entity = "171881-019-R-J1-PDC tumor spheroid viability"
class_assignment = "bottom"

[[record]]
compound = "CC1(C)CCC(Nc2ncc(C(F)(F)F)c(-c3c[nH]c4c(P(C)(C)=O)c(C#N)ccc34)n2)CN1 (stereo unspecified) + CC(Nc1ncnc2nc[nH]c12)c1cc2cccc(Cl)c2c(=O)n1-c1ccccc1"
target_entity = "171881-019-R-J1-PDC tumor spheroid viability"
class_assignment = "top"

[[record]]
compound = "C[C@@H](NC(=O)c1ncnc(N)c1Cl)c1ncc(C(=O)Nc2cc(C(F)(F)F)c(Cl)cn2)s1 + CC(Nc1ccc2c(c1)OCCn1cc(N3C(=O)OCC3C(F)F)nc1-2)C(N)=O"
target_entity = "171881-019-R-J1-PDC tumor spheroid viability"
class_assignment = "middle"


Which class holds Cn1ncc(Cl)c1-c1cc(C(=O)NC(CN)Cc2cccc(F)c2)sc1Cl (stereo unspecified) + CC(Nc1ncnc2nc[nH]c12)c1cc2cccc(Cl)c2c(=O)n1-c1ccccc1 ?
middle

Which class holds Cn1nccc1Nc1nccc(-c2ccn(C(CO)c3ccc(Cl)c(F)c3)c(=O)c2)n1 (stereo unspecified) + CC(Nc1ncnc2nc[nH]c12)c1cc2cccc(Cl)c2c(=O)n1-c1ccccc1 ?
top

Which class holds CC1(C)CCC(Nc2ncc(C(F)(F)F)c(-c3c[nH]c4c(P(C)(C)=O)c(C#N)ccc34)n2)CN1 (stereo unspecified) + Cc1nc(NC(=O)N2CCCC2C(N)=O)sc1-c1ccnc(C(C)(C)C(F)(F)F)c1 ?
top

Which class holds CC(C)NCC(C(=O)N1CCN(c2ncnc3c2C(C)CC3O)CC1)c1ccc(Cl)cc1 (stereo unspecified) + CC(Nc1ncnc2nc[nH]c12)c1cc2cccc(Cl)c2c(=O)n1-c1ccccc1 ?
middle
